# Test system: sigma-2 receptor
# TEST_DESCRIPTION: Literature [³H] DTG and [³H] PPP binding in PC12 cells and affinity estimated from it
# Parameters: species or system rat
# RUN_CONDITIONS: estimated from PPP data in PC12 cells; data of ref Hellewell and Bowen, 1990
ASSAY_METRIC: pKi
Numbers only, as −log10 of the molar value.

Problem: Query for sigma-2 receptor: what pKi does the record show for C=CCN1CC[C@@]23CCCC[C@@H]2[C@@H]1Cc1ccc(O)cc13 ?
Solution: 4.82

----------
# SYSTEM_UNDER_TEST: sigma-1 receptor
# TEST_DESCRIPTION: Literature dextrallorphan competition against [³H] PPP (Largent et al.)
# Type: binding
# RUN_CONDITIONS: lowest calculated affinity, from Ki 153-158 nM; data of ref Largent et al., 1987; read-out: sigma-1 affinity used for modelling
ASSAY_METRIC: pKi
Give bare numbers, as −log10 of the molar value.

Problem: # get_value(readout='pKi', item= C=CCN1CC[C@@]23CCCC[C@@H]2[C@@H]1Cc1ccc(O)cc13 )
Solution: 6.81

----------
# SYSTEM_UNDER_TEST: sigma-1 receptor
# TEST_DESCRIPTION: Literature dextrallorphan competition against [³H] PPP (Largent et al.)
# Format: binding
# RUN_CONDITIONS: Cheng-Prusoff correction of IC50 163 nM; data of ref Largent et al., 1987; read-out: Ki
pKi: −log10 of the molar value.
ASSAY_METRIC: pKi

Problem: Query for sigma-1 receptor: what pKi does the record show for C=CCN1CC[C@@]23CCCC[C@@H]2[C@@H]1Cc1ccc(O)cc13 ?
Solution: 6.80 to 6.82

Origin of the recorded values: paper PMC7082753
